Target Of Assay: 3',5'-cyclic-AMP phosphodiesterase 4B (Homo sapiens)
Sequence (Q07343 whole entry): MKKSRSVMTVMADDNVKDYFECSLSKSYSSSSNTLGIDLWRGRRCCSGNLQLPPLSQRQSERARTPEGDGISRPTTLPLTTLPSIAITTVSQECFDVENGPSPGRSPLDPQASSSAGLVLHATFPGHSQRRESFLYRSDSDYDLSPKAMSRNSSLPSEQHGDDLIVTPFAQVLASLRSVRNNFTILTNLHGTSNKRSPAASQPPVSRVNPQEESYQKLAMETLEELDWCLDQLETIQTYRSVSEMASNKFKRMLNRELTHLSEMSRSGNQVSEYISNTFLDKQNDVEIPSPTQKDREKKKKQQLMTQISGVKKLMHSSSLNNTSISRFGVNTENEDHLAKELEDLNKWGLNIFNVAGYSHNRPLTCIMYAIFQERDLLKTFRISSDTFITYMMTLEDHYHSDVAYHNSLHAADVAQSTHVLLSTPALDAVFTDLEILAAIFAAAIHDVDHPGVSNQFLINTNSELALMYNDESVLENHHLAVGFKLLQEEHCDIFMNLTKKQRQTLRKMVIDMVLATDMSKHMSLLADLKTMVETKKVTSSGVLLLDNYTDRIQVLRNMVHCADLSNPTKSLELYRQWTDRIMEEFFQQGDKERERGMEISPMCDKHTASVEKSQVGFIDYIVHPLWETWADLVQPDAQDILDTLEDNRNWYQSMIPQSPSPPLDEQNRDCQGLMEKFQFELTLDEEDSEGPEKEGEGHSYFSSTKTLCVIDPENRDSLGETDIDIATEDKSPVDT
Measurement Protocol: Inhibition of full length recombinant human PDE4B1 expressed in Sf21 insect cells using cAMP as substrate by scintillation proximity assay
Readout Label: Ki
Reply with a number, then the unit it belongs to.

Examples from the recorded data:
Inquiry: Let me know recorded Ki for COc1ccc(C2=NN(C3CCCCCC3)C(=O)[C@@H]3CC=CC[C@H]23)cc1-c1ccc(C(=O)NCCC(N)=O)cc1 (relative stereo) , thanks.
Reply text: 1 µM

Inquiry: Let me know recorded Ki for COc1ccc(C2=NN(C3CCCCCC3)C(=O)[C@@H]3CC=CC[C@H]23)cc1-c1ccc(C(=O)O)cc1 (relative stereo) , thanks.
Reply text: 7.94 µM

Inquiry: Let me know recorded Ki for COc1ccc(C2=NN(C3CCCCCC3)C(=O)[C@@H]3CC=CC[C@H]23)cc1-c1ccc(C(=O)NCCNC(C)=O)cc1 (relative stereo) , thanks.
Reply text: 3.98 µM

Continuing:
Inquiry: Let me know recorded Ki for COc1ccc(C2=NN(C3CCCCCC3)C(=O)[C@@H]3CC=CC[C@H]23)cc1-c1cccc(C(=O)O)c1 (relative stereo) , thanks.
Reply text: 12.6 µM

Values were extracted from ChEMBL document CHEMBL4177766.
